Test system: Staphylococcus aureus
Assay: In vitro for antibacterial activity against Staphylococcus aureus 887
Assay type: functional
Reported Endpoint: MIC (µg/mL)

                                   compound  scale_unit  sign_qualifier  val
0  CN1CCN(c2cc3c(cc2F)n2c(=O)[nH]c(=O)cc2n3C2CC2)CC1       µg/mL               =   16
1  CCn1c2cc(N3CCNCC3)c(F)cc2n2c(=O)n(O)c(=O)cc12       µg/mL               >   64
2  O=c1cc2n(C3CC3)c3cc(N4CCNCC4)c(F)cc3n2c(=O)[nH]1       µg/mL               >   32
3     CCn1c2cc(N3CCNCC3)c(F)cc2c2c(N)ncnc21       µg/mL               >  128
4  CN(C)n1c(=O)cc2n(C3CC3)c3cc(N4CCNCC4)c(F)cc3n2c1=O       µg/mL               =   16
5  O=c1cc2n(C3CC3)c3cc(N4CCNCC4)c(F)cc3n2c(=O)n1O       µg/mL               >   64
6  CCn1c2cc(N3CCN(C)CC3)c(F)cc2n2c(=O)n(O)c(=O)cc12       µg/mL               =   16
7  CCn1cc(C(=O)O)c(=O)c2cc(F)c(N3CCNCC3)cc21 [NORFLOXACIN]       µg/mL               =    4
8  Nn1c(=O)cc2n(C3CC3)c3cc(N4CCNCC4)c(F)cc3n2c1=O       µg/mL               =   64
9  CCn1c2cc(N3CCN(C)CC3)c(F)cc2n2c(=O)nc(N)cc12       µg/mL               >   32
